Below, each entry is listed alongside its reported IC50.
target: BTK enzyme (recombinant full-length BTK, hBTK) (Homo sapiens, UniProt Q06187); construct: recombinant protein from baculovirus-transfected Sf9 cells: full-length BTK, 6HIS-tag cleaved; 6HIS (cleaved yes); assay: Btk enzyme activity assay (LANCE TR-FRET); conditions: 60 minute compound & enzyme incubation, 50 pM hBTK, 25 μM ATP, read-out: BTK binding IC50
Sequence (Q06187 whole entry): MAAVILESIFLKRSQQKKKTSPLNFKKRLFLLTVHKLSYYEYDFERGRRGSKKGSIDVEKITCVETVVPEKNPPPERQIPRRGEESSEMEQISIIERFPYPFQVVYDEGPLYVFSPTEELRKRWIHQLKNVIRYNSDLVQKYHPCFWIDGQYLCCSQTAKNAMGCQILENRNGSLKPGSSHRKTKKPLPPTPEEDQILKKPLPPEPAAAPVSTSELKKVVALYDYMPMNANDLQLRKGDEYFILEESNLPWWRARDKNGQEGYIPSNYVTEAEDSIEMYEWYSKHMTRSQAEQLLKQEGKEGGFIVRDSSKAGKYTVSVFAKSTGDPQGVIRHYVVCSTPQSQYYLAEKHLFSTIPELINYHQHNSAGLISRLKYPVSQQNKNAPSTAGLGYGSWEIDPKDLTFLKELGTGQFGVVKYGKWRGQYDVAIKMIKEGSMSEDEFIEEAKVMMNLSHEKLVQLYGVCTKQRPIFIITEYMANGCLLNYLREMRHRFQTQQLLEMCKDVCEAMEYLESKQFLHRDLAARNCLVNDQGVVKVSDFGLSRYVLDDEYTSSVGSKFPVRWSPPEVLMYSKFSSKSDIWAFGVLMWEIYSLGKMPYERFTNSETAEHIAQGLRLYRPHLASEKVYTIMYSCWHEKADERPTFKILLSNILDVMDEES
measured parameter: IC50 (nM)

                                        smi  measure_unit  measured_result
0  Cc1nccn2c([C@@H]3CCCN(C#N)C3)nc(-c3ccc(C(=O)Nc4cc(C5CC5)ccn4)cc3)c12            nM             46.8
1  C[C@H]1CC[C@@H](c2nc(-c3ccc(C(=O)Nc4ccccn4)cc3)c3c(N)nccn23)CN1C#N            nM              3.1
2  COCc1cnc(N)c2c(-c3ccc(C(=O)Nc4cc(C(F)(F)F)ccn4)cc3F)nc([C@@H]3CCCN(C#N)C3)n12            nM             0.92
3  N#CN1CCO[C@@H](c2nc(-c3ccc(C(=O)Nc4cc(C5CC5)ccn4)cc3)c3c(N)nccn23)C1            nM                1
4  CCOc1cc(C(=O)Nc2cc(C(F)(F)F)ccn2)ccc1-c1nc([C@@H]2CC[C@H](C)N(C#N)C2)n2c(Cl)cnc(N)c12            nM              2.2
5  CCOc1cc(C(=O)Nc2cc(C(F)(F)F)ccn2)ccc1-c1nc([C@H]2CN(C#N)[C@@H](C)CO2)n2c(Cl)cnc(N)c12            nM              1.5
6  N#CN1CCC[C@H]1c1nc(-c2ccc(C(=O)Nc3ccccn3)cc2)c2c(N)nccn12            nM             60.3
7  N#CN1CCC[C@@H](c2nc(-c3ccc(C(=O)Nc4ccccn4)cc3)c3c(N)nccn23)C1            nM              1.5
8  N#CN1CCC[C@@H](c2nc(-c3ccc(C(=O)Nc4cc(C5CC5)ccn4)cc3)c3c(N)nccn23)C1            nM              1.8
